Data credit: patent US10981932B2

# Tested on: MV-4-11
# Measurement Protocol: Anti-proliferative effect (CellTiter-Glo, 72 h), MV-4-11
# Type: cell-based
# Experimental Conditions: MV-4-11 cells, median, read-out: IC50 antiproliferation assay MV-4-11 [M] (median)
Kindly state IC50 for each of the entries shown.
Your answer is read as M, so omit the unit and give the number.

Prompt: Please report IC50 with MV-4-11 for item Cn1nc(COC2CC2)c2c1COCCCCn1c(C(=O)O)c(CCCOc3cccc4ccccc34)c3cccc-2c31 (single isomer, unassigned) .
Response: 2.33e-05

Prompt: Please report IC50 with MV-4-11 for item CCc1nn(C)c2c1-c1cccc3c(CCCOc4cccc5c(F)cccc45)c(C(=O)O)n(c13)CCCCOC2 (single isomer, unassigned) .
Response: 2.15e-05

Prompt: Please report IC50 with MV-4-11 for item CN1CCCCn2c(C(=O)O)c(CCCOc3cccc4ccccc34)c3cccc(c32)-c2c(CC(F)(F)F)nn(C)c2C1 (single isomer, unassigned) .
Response: 1.22e-05

Prompt: Please report IC50 with MV-4-11 for item COc1ccc2c(CCCOc3cccc4ccccc34)c(C(=O)O)n3c2c1-c1c(C)nn(C)c1COCCCC3 (single isomer, unassigned; enantiomer 1) [Example 352] .
Response: 1.05e-05

Prompt: Please report IC50 with MV-4-11 for item Cc1c2c(nn1CCN1CCOCC1)COCCCCn1c(C(=O)O)c(CCCOc3cccc4cc(F)ccc34)c3cccc-2c31 (single isomer, unassigned) [Example 286] .
Response: 1.73e-05

Prompt: Please report IC50 with MV-4-11 for item Cn1nc(COc2ccc(N3CCN(S(C)(=O)=O)CC3)cc2)c2c1COCCCCn1c(C(=O)O)c(CCCOc3cccc4ccccc34)c3cccc-2c31 (single isomer, unassigned; enantiomer 2) [Example 1-10] .
Response: 2.29e-06
